// provenance: patent US8507488B2

Molecular target: Tel-TrkA (Homo sapiens, UniProt P04629)
Construct: dimerization domain of Tel (ETV6) transcription factor (fusion partner, human ETV6 P41212); expressed in transfected cells; host or cells: luciferase expressing Ba/F3 murine hematopoietic progenitor cells; the other entry of the earlier key: ETV6 (P41212, Transcription factor ETV6)
Sequence (P04629 510-796 limits assumed): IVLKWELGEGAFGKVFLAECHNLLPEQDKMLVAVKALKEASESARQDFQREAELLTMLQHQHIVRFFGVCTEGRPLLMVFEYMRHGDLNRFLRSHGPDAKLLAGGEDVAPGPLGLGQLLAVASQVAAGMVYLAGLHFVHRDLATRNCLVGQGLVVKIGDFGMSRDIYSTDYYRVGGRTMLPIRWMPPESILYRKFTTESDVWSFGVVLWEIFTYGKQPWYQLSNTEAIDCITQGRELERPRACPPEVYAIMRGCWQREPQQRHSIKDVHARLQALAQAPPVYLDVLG
Assay: Inhibition of proliferation of Ba/F3 cells expressing Tel-TrkA (BaF3/Tel-TrkA, luciferase/Bright Glo readout)
Type: cell-based
Conditions: read-out: Ba/F3 Tel-TrkA IC 50
Reported Endpoint: IC50 (nM)
# number only, unit nM dropped from output

Here is how some compounds turned out for IC50.
{"Compound": "Fc1cccc(C2CCCN2c2ccc3ncc(-c4cc5ccccc5nc4F)n3n2)c1 (stereo not shown) [Table 7-Compound 153]", "Assayed Target": "Tel-TrkA (Homo sapiens, UniProt P04629)", "IC50 (nM)": 346}
{"Compound": "[2H]C([2H])([2H])N(C1CCN(c2cccc(-c3cnc4ccc(N5CCC[C@@H]5c5cccc(F)c5)nn34)n2)CC1)C([2H])([2H])[2H] [Table 7-Compound 230]", "Assayed Target": "Tel-TrkA (Homo sapiens, UniProt P04629)", "IC50 (nM)": 6}
{"Compound": "N#Cc1ccc(-c2cnc3ccc(N4CCCC4c4cc(F)ccc4F)nn23)cc1N1CCC(N2CCOCC2)CC1 (stereo not shown) [Table 5-Compound 13]", "Assayed Target": "Tel-TrkA (Homo sapiens, UniProt P04629)", "IC50 (nM)": 3.5}

Would you kindly look at the next entry?
stdin: Retrieve IC50 measured for Fc1cccc(C2CCCN2c2ccc3ncc(-c4csc(N5CCCCC5)n4)n3n2)c1 (stereo not shown) [Table 3-Compound 6] and print it.
stdout: 360
